# Study System: T1, human CCR8 (human, UniProt P51685 1-355)
# T1 construct: whole, on cells; also called hCCR8
# T1 sequence (P51685 whole entry): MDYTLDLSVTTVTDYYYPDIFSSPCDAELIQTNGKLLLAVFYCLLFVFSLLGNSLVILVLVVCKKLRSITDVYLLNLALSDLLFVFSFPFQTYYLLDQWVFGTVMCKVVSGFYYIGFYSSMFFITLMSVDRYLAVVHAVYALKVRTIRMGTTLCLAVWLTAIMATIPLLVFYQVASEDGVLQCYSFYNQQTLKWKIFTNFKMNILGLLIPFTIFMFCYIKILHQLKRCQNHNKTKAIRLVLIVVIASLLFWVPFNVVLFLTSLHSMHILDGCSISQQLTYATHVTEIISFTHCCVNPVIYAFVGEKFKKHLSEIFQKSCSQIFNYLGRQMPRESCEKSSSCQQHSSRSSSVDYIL
# Experiment Summary: FACS, competition with AF647-human CCL1 on CHO-K1-human CCR8 cells
The entries below come with measured Max Inhibition (%) values attached.
Respond with the bare value in %.

Observe how each entry below is paired with its result.
* 149F2C10 (antibody, V domains shown, purified murine hybridoma antibody) VH: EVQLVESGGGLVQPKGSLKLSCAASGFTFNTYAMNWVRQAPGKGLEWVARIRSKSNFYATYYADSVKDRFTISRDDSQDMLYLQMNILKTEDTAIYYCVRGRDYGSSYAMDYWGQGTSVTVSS VL: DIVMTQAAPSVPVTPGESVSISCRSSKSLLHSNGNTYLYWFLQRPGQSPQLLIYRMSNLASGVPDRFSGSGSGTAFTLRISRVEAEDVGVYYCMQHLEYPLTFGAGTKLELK | 98
* 191E12H8 (antibody, V domains shown, purified murine hybridoma antibody) VH: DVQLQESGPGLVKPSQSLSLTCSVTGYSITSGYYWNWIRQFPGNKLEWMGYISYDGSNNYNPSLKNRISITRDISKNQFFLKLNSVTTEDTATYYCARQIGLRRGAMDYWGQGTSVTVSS VL: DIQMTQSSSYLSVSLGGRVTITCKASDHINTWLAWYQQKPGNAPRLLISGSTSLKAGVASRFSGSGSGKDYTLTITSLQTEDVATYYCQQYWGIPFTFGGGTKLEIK | 89.7
* 160D1E3 (antibody, V domains shown, purified murine hybridoma antibody) VH: EVQLVESGGGLVQPKGSLKLSCAASGFTFNTYAMNWVRQAPGKGLEWVARIRSKSNYYATYYADSVKDRFTISRDDSQDMLYLQMNNLKTEDTAIYYCVRGRDYGSSYAMDYWGQGTSVTVSS VL: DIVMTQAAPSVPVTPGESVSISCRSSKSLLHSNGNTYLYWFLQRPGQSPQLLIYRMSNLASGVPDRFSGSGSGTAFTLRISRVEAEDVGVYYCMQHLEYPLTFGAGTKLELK | 98
* 153D4G2 (antibody, V domains shown, purified murine hybridoma antibody) VH: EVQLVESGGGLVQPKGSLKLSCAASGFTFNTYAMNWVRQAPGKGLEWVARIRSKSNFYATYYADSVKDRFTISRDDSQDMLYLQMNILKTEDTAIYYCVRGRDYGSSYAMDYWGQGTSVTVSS VL: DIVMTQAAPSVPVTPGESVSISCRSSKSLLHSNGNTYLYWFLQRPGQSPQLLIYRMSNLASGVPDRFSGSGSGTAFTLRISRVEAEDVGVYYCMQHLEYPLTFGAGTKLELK | 98.2

Next binder, Max Inhibition (%) to be filled in.
Q: For the binder 273H2G6 (antibody, V domains shown, purified murine hybridoma antibody) VH: DVQLQESGPGLVKPSQSLSLTCSVTGYSITSGYYWNWIRQFPGNKLEWMGYISYDGSNNYNPSLKNRISITRDISKNQFFLKLNSVTTEDTATYYCARQVGLRRGAMDYWGQGTSVTVSS VL: DIQMTQSSSYLSVSLGGRVTITCKASDHINNWLAWYQQKPGNAPRLLISGSTSLKAGVASRFSGSGSGKDYTLSITSLQTEDVATYYCQQYWSIPYTFGGGTKLEIK , give its reported Max Inhibition (%).
Result: 91.3
